- target.system: Gamma-aminobutyric acid receptor subunit alpha-5 (Homo sapiens, UniProt P31644)
- Sequence (P31644 whole entry): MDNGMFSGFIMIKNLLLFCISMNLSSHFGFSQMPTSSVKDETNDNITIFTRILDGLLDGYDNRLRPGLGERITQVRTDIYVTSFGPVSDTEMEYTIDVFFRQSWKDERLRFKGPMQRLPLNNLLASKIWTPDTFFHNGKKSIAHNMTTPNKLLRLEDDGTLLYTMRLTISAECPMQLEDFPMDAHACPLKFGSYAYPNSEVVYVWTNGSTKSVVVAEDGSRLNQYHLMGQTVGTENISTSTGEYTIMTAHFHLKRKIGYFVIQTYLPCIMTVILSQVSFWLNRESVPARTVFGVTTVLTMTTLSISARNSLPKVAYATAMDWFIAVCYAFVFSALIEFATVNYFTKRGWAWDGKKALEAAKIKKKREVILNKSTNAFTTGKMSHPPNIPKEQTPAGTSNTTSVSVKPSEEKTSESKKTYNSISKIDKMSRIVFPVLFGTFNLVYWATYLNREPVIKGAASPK
- test.protocol: Binding Assay

{"compound": "Cc1onc(-c2ccc(F)cc2)c1COc1ccc2c(n1)CCN(C(=O)N1CCCCC1)C2 [US12370182, Example 85]", "target.system": "Gamma-aminobutyric acid receptor subunit alpha-5 (Homo sapiens, UniProt P31644)", "Ki, nM": 36}
{"compound": "Cc1nnn(-c2ccc(F)cc2)c1COc1ccc2c(n1)CN(C(=O)C(F)(F)F)C2 [US12370182, Example 51]", "target.system": "Gamma-aminobutyric acid receptor subunit alpha-5 (Homo sapiens, UniProt P31644)", "Ki, nM": 31}
